The reported measurements were obtained from patent US20090162358A1.

Answer each item with its documented Kd.
Biological target: T1, human β-amyloid 1-40 (human, UniProt P05067 672-711)
T1 construct: domain: β-amyloid (1-40); Used in solution over captured antibody (Biacore) or coated on ELISA plates; also called human Aβ peptide (1-40); Aβ peptide (1-40)
T1 sequence (P05067 672-711 limits assumed): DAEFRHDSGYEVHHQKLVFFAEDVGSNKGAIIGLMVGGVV
Assay: SPR Biacore T100 at 37 C; antibody captured on anti-human IgG, Aβ 1-40 at 1-256 nM
Method: Anti-human IgG (Biacore BR-1008-39) was coupled to a CM5 biosensor chip by primary amine coupling. The anti-beta amyloid antibodies were captured on this surface. Beta amyloid (1-40) was then passed over at 256, 64, 16, 4 and 1 nM, with a 0 nM (ie buffer alone passed over the captured antibody surface) used for double referencing. […] The data was analysed using the 1:1 model inherent to the T100. […] From this panel some constructs were also assessed for binding kinetics at physiological temperature.
I'd appreciate it if you wrote the number followed by its unit.

humanised de-immunised construct H51L20 (antibody, human IgG1, V domains shown) VH: QVQLVQSGAEVKEPGASVKVSCKGSGFNIHTYYVHWLRQLPEKGLEWIGRIDPENGETIYTPKFQDKATLTVDTSTDTAYMELSSLRSEDTAVYYCVSSGYWGQGTLVTVSS VL: DIVMTQSPLSNPVTPGEPASISCRSSKSLLHRNGITYLYWYLQKPGQSPQLLIYQMDHLASGVPDRFSSSGSGTDFTLKISRVEAEDVGVYYCAQNLELWTFGQGTKVEIK = 3.89 nM
humanised de-immunised construct H48L21 (antibody, human IgG1, V domains shown) VH: QVQLVQSGAEVKEPGASVKVSCKGSGFNIHVYYVHWLRQLPEKGLEWIGRIDPENGETIYTPKFQDKATLTVDTSTDTAYMELSSLRSEDTAVYYCVSSGYWGQGTLVTVSS VL: DIVMTQSPLSNPVTPGEPASISCRSSKSLLHRNGKTYLYWYLQKPGQSPQLLIYQMDNLASGVPDRFSSSGSGTDFTLKISRVEAEDVGVYYCAQNLELWTFGQGTKVEIK = 2.69 nM

# next binder below
Incoming: Which Kd reading was recorded for the binder humanised de-immunised construct H51L21 (antibody, human IgG1, V domains shown) VH: QVQLVQSGAEVKEPGASVKVSCKGSGFNIHTYYVHWLRQLPEKGLEWIGRIDPENGETIYTPKFQDKATLTVDTSTDTAYMELSSLRSEDTAVYYCVSSGYWGQGTLVTVSS VL: DIVMTQSPLSNPVTPGEPASISCRSSKSLLHRNGKTYLYWYLQKPGQSPQLLIYQMDNLASGVPDRFSSSGSGTDFTLKISRVEAEDVGVYYCAQNLELWTFGQGTKVEIK ?
Outgoing: 2.9 nM
